TEST PARAMETERS: in ethanol, 278 K

COMPOUND SMILES	solubility (mole fraction)
O=S(=O)([N-]Cl)c1ccccc1.[Na+]	0.0164
Cc1ccc(S(=O)(=O)[N-]Cl)cc1.[Na+]	0.02

###

TEST PARAMETERS: in n-propanol, 318 K
# solubility (mole fraction) annotations

COMPOUND SMILES	solubility (mole fraction)
O=S(=O)([N-]Cl)c1ccccc1.[Na+]	0.0307
Cc1ccc(S(=O)(=O)[N-]Cl)cc1.[Na+]	0.0235

###

# solubility (mole fraction) annotations
TEST PARAMETERS: in ethanol, 323 K
READOUT: solubility (mole fraction)

COMPOUND SMILES	VAL
Cc1ccc(S(=O)(=O)[N-]Cl)cc1.[Na+]	0.0564
O=S(=O)([N-]Cl)c1ccccc1.[Na+]	0.066
